# Target system: T1, human ROR1 (full-length, on the cell surface) (human, UniProt Q01973 30-937)
# T1 construct: whole, on cells; the tumour cell lines carry their own ROR1; also called Ba/F3-ROR1 cells; Jeko-1
# T1 sequence (Q01973 30-937): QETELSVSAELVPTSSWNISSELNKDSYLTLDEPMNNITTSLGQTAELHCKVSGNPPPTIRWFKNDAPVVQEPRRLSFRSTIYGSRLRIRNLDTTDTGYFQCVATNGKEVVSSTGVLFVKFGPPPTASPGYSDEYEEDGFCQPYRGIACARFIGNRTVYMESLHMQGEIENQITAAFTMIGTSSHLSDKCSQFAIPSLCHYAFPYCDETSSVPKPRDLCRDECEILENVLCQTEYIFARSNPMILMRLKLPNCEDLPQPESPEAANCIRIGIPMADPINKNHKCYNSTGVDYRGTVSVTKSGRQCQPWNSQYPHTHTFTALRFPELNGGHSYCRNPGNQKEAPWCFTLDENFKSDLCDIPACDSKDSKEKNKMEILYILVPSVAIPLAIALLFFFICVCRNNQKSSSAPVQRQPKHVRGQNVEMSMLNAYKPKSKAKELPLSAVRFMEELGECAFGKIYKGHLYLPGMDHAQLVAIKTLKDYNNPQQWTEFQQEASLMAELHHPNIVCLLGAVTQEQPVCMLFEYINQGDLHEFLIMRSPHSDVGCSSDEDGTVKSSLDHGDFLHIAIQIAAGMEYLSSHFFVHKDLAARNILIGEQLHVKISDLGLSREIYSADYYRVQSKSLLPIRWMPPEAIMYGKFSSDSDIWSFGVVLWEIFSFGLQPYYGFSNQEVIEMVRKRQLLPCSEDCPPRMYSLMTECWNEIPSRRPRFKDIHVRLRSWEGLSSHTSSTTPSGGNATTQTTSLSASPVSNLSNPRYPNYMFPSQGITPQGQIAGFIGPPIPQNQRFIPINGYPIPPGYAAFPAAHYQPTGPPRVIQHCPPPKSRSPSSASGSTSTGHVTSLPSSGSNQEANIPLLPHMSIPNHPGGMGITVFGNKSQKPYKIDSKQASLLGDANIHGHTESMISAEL
# Assay name: flow cytometry, Ba/F3-ROR1 cells
Value type: EC50 (nM)

>>> reading("38F8-Hu64 (antibody, human IgG1, kappa, V domains shown, humanized, human IgG1 / kappa) VH: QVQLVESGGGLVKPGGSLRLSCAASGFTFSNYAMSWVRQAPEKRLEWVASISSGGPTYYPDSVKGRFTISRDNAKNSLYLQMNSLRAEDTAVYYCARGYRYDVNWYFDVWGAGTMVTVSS VL: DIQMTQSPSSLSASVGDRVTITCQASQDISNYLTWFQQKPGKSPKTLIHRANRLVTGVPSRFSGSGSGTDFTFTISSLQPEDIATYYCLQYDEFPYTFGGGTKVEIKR")
1.2
>>> reading("38F8-Hu18 (antibody, human IgG1, kappa, V domains shown, humanized, human IgG1 / kappa) VH: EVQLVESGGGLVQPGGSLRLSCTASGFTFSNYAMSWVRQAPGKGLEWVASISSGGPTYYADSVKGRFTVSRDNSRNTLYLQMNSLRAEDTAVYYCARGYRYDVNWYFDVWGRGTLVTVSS VL: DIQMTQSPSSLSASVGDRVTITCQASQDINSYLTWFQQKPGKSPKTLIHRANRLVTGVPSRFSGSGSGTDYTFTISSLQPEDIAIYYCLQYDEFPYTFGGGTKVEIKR")
0.82
>>> reading("38F8-Hu24 (antibody, human IgG1, kappa, V domains shown, humanized, human IgG1 / kappa) VH: EVQLVESGGGLVQPGGSLRLSCAASGFTFSNYAMSWVRQAPGKGLEWVASISSGGPTYYPDSVKGRFTVSRDNSKNTLYLQMNSLRAEDTAVYYCARGYRYDVNWYFDVWGAGTMVTVSS VL: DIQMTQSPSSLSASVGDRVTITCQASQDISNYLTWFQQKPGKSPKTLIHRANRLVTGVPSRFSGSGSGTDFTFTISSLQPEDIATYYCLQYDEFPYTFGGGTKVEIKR")
0.98
>>> reading("38F8-Hu68 (antibody, human IgG1, kappa, V domains shown, humanized, human IgG1 / kappa) VH: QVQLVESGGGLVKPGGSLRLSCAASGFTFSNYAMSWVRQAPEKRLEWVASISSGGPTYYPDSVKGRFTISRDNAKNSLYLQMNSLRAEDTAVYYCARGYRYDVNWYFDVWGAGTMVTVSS VL: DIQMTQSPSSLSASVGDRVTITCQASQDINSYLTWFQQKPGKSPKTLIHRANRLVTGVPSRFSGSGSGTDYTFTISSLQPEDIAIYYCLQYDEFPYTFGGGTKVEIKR")
2.19
>>> reading("38F8-Hu16 (antibody, human IgG1, kappa, V domains shown, humanized, human IgG1 / kappa) VH: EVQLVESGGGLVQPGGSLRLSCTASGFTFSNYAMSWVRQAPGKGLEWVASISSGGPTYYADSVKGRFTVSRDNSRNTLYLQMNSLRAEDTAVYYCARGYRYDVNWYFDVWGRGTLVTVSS VL: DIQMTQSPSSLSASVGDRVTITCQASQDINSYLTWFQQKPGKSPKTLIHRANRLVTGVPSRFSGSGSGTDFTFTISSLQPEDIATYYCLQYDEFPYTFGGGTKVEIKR")
0.94
